// reported pEC50 per item
target: Gal4-RORγ-LBD (Homo sapiens, UniProt P51449); construct: expressed in transfected cells; host or cells: HEK-293 cells (pcDNA3.1neo plasmid); test: Gal4-RORγ Luciferase Reporter Assay in HEK-293T Cells; type: cell-based; details: HEK-293 cells, 2 μM ursolic acid
Sequence (P51449 269-508 limits assumed): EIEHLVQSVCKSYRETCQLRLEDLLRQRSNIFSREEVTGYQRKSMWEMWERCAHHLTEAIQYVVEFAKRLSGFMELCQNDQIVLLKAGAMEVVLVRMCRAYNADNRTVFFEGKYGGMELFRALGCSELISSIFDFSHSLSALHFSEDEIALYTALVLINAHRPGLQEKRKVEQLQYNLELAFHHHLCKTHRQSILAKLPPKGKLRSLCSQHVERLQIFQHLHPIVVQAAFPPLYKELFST
pEC50: −log10 of the molar value.

Worked cases, answers included:
> print(dat)
                                   compound                           targetundertest  endpointlabel      observed
1  O=C(O)C1(C[C@H]2CN(S(=O)(=O)c3cccc(C(F)(F)F)c3)c3cc(-c4cc(F)cc(F)c4Cl)ccc3O2)CCOCC1 [Compound 78C]  Gal4-RORγ-LBD (Homo sapiens, UniProt P51449)          pEC50        > 6.30
2  CC(=O)N[C@H]1C[C@@](C[C@H]2CN(S(=O)(=O)c3cccc(C(F)(F)F)c3)c3cc(-c4cc(F)cc(OC(F)F)c4)ccc3O2)(C(=O)O)C1 [Compound 84]  Gal4-RORγ-LBD (Homo sapiens, UniProt P51449)          pEC50  5.30 to 6.30
3  C[C@]1(C(=O)O)C[C@H](C[C@H]2CN(S(=O)(=O)c3cccc(C(F)(F)F)c3)c3cc(-c4cc(F)cc(OC(F)F)c4)ccc3O2)C1 [Compound 69]  Gal4-RORγ-LBD (Homo sapiens, UniProt P51449)          pEC50  5.30 to 6.30
4  O=C(O)C1(C[C@H]2CN(S(=O)(=O)c3cccc(C(F)F)c3)c3cc(-c4cc(F)cc(OC(F)F)c4)ccc3O2)COC1 [Compound 51J]  Gal4-RORγ-LBD (Homo sapiens, UniProt P51449)          pEC50        > 6.30

pEC50 in this record for Cc1cc(F)cc(-c2ccc3c(c2)N(S(=O)(=O)c2cccc(C(F)(F)F)c2)C[C@H](CC2(C(=O)O)CCOCC2)O3)c1 [Compound 78Q] : > 6.30

Sure, the documented pEC50 for CC(=O)N[C@H]1C[C@@](C[C@H]2CN(S(=O)(=O)c3cccc(C(F)(F)F)c3)c3cc(-c4cc(F)ccc4F)ccc3O2)(C(=O)O)C1 [Compound 89A] is 5.30 to 6.30

Query O=C(O)C1(C[C@H]2CN(S(=O)(=O)c3cccc(C(F)(F)F)c3)c3cc(-c4cccc(C(F)(F)F)c4)ccc3O2)CCOCC1 [Compound 78H] yields pEC50 of > 6.30

Lab book: pEC50 of CC(C)(C[C@H]1CN(S(=O)(=O)c2cccc(C(F)(F)F)c2)c2cc(-c3cccc(C(F)(F)F)c3Cl)ccc2O1)C(=O)O [Compound 32AA] noted as > 6.30

Form: compound = O=C(O)[C@]1(C[C@H]2CN(S(=O)(=O)c3cccc(C(F)(F)F)c3)c3cc(-c4cc(F)cc(OC(F)F)c4)ccc3O2)C[C@@H](O)[C@@H](O)C1 [Compound 64] ; pEC50 = 5.30 to 6.30

Given item O=C(O)CO[C@@H]1Cc2ccc(-c3cc(F)ccc3F)cc2N(S(=O)(=O)c2cccc(C(F)(F)F)c2)C1 [Compound 82] , the value recorded as its pEC50 is 5.30 to 6.30

CC(C)(O)CC(=O)NC[C@H]1CN(S(=O)(=O)c2cccc(C(F)(F)F)c2)c2cc(-c3cccc(F)c3Cl)ccc2O1 [Compound 30CG] has a reported pEC50 of 5.30 to 6.30

----------
molecular target: Gal4-RORγ-LBD (Homo sapiens, UniProt P51449); construct: expressed in transfected cells; host or cells: HEK-293 cells (pcDNA3.1neo plasmid); assay: Gal4-RORγ Luciferase Reporter Assay in HEK-293T Cells; format: cell-based; settings: HEK-293 cells, 2 μM ursolic acid
endpointLabel: EC50

Recorded results for 5 compounds are shown here.
> print(dat)
                                   compound                           targetundertest  endpointlabel        observed
1  Cc1cc(C)cc(-c2ccc3c(c2)N(S(=O)(=O)c2cccc(C(F)(F)F)c2)C[C@H](CC(C)(C)C(=O)O)O3)c1 [Compound 32AS]  Gal4-RORγ-LBD (Homo sapiens, UniProt P51449)           EC50        < 500 nM
2  CC(C)(O[C@@H]1Cc2ccc(-c3cc(F)ccc3F)cc2N(S(=O)(=O)c2cccc(C(F)(F)F)c2)C1)C(=O)O [Compound 83B]  Gal4-RORγ-LBD (Homo sapiens, UniProt P51449)           EC50  500 to 5000 nM
3  CC(C)(C(=O)NC[C@H]1CN(S(=O)(=O)c2cccc(C(F)(F)F)c2)c2cc(-c3cccc(C(F)(F)F)n3)ccc2O1)C(F)(F)F [Compound 30BY]  Gal4-RORγ-LBD (Homo sapiens, UniProt P51449)           EC50  500 to 5000 nM
4  Cc1cccc(-c2ccc3c(c2)N(S(=O)(=O)c2cccc(C(F)(F)F)c2)C[C@H](CC(C)(C)C(=O)O)O3)c1Cl [Compound 32AX]  Gal4-RORγ-LBD (Homo sapiens, UniProt P51449)           EC50        < 500 nM
5  O=C(O)C1(C[C@H]2CN(S(=O)(=O)c3cccc(C(F)(F)F)c3)c3cc(-c4cccc(OC(F)(F)F)c4)ccc3O2)CCOCC1 [Compound 78K]  Gal4-RORγ-LBD (Homo sapiens, UniProt P51449)           EC50        < 500 nM

Item: CC(C)(C[C@H]1CN(S(=O)(=O)c2cccc(C(F)(F)F)c2)c2cc(-c3cc(F)cc(F)c3F)ccc2O1)C(=O)O [Compound 32X] | System: Gal4-RORγ-LBD (Homo sapiens, UniProt P51449) | EC50: < 500 nM

For CC(C)(CC[C@H]1CN(S(=O)(=O)c2cccc(OC(F)F)c2)c2cc(-c3cc(F)ccc3F)ccc2O1)C(=O)O [Compound 32T] on Gal4-RORγ-LBD (Homo sapiens, UniProt P51449), measured EC50 was < 500 nM

For the compound O=C(O)C1(C[C@H]2CN(S(=O)(=O)c3cccc(C(F)F)c3)c3cc(-c4cc(F)ccc4F)ccc3O2)COC1 [Compound 51H] , the measured EC50 on Gal4-RORγ-LBD (Homo sapiens, UniProt P51449) was 500 to 5000 nM

// assay Gal4-RORγ-LBD (Homo sapiens, UniProt P51449), entry O=C(O)C1(C[C@H]2CN(S(=O)(=O)c3cccc(C(F)(F)F)c3)c3cc(-c4cc(F)ccc4Cl)ccc3O2)CCOCC1 [Compound 78D] , EC50 value = < 500 nM

The reported EC50 value, Gal4-RORγ-LBD (Homo sapiens, UniProt P51449), for CC(=O)N1CC(C[C@H]2CN(S(=O)(=O)c3cccc(C(F)(F)F)c3)c3cc(-c4cc(F)ccc4F)ccc3O2)C1 reads < 500 nM

----------
target: Gal4-RORγ-LBD (Homo sapiens); construct: expressed in transfected cells; host or cells: HEK-293 cells (pcDNA3.1neo plasmid); experiment: Gal4-RORγ Luciferase Reporter Assay in HEK-293T Cells; format: cell-based; settings: HEK-293 cells, luciferase reporter, with 2 μM ursolic acid
Below: a set of entries, each annotated with reported EC50.

Reference set, count: 2
> print(dat)
                                   compound  endpointlabel  observed
1  O=C(O)CC[C@H]1CN(S(=O)(=O)c2cccc(C3CC3)c2)c2cc(-c3cccc(Cl)c3)ccc2O1 [Compound 6H]           EC50  < 500 nM
2  O=C(NC[C@H]1CN(S(=O)(=O)c2cccc(C(F)(F)F)c2)c2cc(-c3cc(F)ccc3F)ccc2O1)c1cc[nH]n1 [Compound 30AD]           EC50  < 500 nM

As a next step, examine the compound that follows.
Field EC50 (entry C[C@](O)(CC[C@H]1CN(S(=O)(=O)c2cccc(C(F)(F)F)c2)c2cc(-c3cc(F)ccc3F)ccc2O1)C(=O)O [Compound 39] ) reads < 500 nM

----------
target: Gal4-RORγ-LBD (Homo sapiens); construct: expressed in transfected cells; host or cells: HEK-293 cells (pcDNA3.1neo plasmid); assay: Gal4-RORγ Luciferase Reporter Assay in HEK-293T Cells; format: cell-based; conditions: HEK-293 cells, 2 μM ursolic acid
Consider the following molecules and their measured EC50 readings.

> print(dat)
                                   molecule          observed
1  O=C(O)C1(C[C@H]2CN(S(=O)(=O)c3cccc(C(F)(F)F)c3)c3cc(-c4cc(F)cc(OC(F)F)c4F)ccc3O2)CCOCC1 [Compound 78V]          < 500 nM
2  CC(C)(C[C@@H]1CN(S(=O)(=O)c2cccc(C(F)(F)F)c2)c2cc(-c3cc(F)ccc3F)ccc2O1)C(=O)O    500 to 5000 nM
3  O=C1CC[C@@](C[C@H]2CN(S(=O)(=O)c3cccc(C(F)(F)F)c3)c3cc(-c4cc(F)ccc4F)ccc3O2)(C(=O)O)N1  5000 to 10000 nM
4  O=C(O)C1(C[C@H]2CN(S(=O)(=O)c3cccc(C(F)(F)F)c3)c3cc(-c4cc(F)cc(OC(F)F)c4)ccc3O2)CCC1 [Compound 32BH]    500 to 5000 nM
5  Cc1cccc(-c2ccc3c(c2)N(S(=O)(=O)c2cccc(C(F)(F)F)c2)C[C@H](CCC(=O)O)O3)c1C          < 500 nM
6  O=C(O)C1(C[C@H]2CN(S(=O)(=O)c3cccc(C(F)(F)F)c3)c3cc(-c4cccc(Cl)c4)ccc3O2)CCOCC1 [Compound 78A]          < 500 nM
7  CC(F)C(=O)NC[C@H]1CN(S(=O)(=O)c2cccc(C(F)(F)F)c2)c2cc(-c3cccc(F)c3Cl)ccc2O1 (stereo partly drawn) [Compound 30CK]    500 to 5000 nM
8  O=C(O)[C@H]1C[C@H](C[C@H]2CN(S(=O)(=O)c3cccc(C(F)(F)F)c3)c3cc(-c4cc(F)cc(F)c4Cl)ccc3O2)C1 [Compound 60B]          < 500 nM

Next up:
Lookup result for COc1cc(F)cc(-c2ccc3c(c2)N(S(=O)(=O)c2cccc(C(F)(F)F)c2)C[C@H](CC(C)(C)C(=O)O)O3)c1 [Compound 32AG] ; measured EC50: < 500 nM
